- Protocol Notes: p53 small molecule agonists, cell-based qHTS assay with human liver microsomes: qHTS cell viability counter screen (AID 1963579); further: nearly all actives have a fitted effect of over 45% in size
- Condition Context: p53RE-bla HCT-116 viability, ATP luminescence, 16 h, HLM; series mostly up to 66 µM
- Text: National Center for Advancing Translational Sciences [NCATS] Division of Preclinical Innovation [DPI] U.S. Environmental Protection Agency [EPA] National Institutes of Environmental Health Sciences [NIEHS] National Toxicology Program [NTP] U.S. Food and Drug Administration [FDA] p53, a tumor suppressor protein, is activated following cellular insult, including DNA damage and other cellular stresses. […] The activation of the reporter gene under culture conditions can be detected by fluorescence intensity. […]
Results filed as inconclusive are left out. Activity calls are given as the source filed them. The call rests on the fitted dose curve.
One label from this list, please: Y = active, N = inactive

CC(C)=CC1C(C(=O)OCc2coc(Cc3ccccc3)c2)C1(C)C (configuration not stated)	N
CC(C)(c1cc(Cl)c(O)c(Cl)c1)c1cc(Cl)c(O)c(Cl)c1	Y
Clc1ccc(CO/N=C(\Cn2ccnc2)c2ccc(Cl)cc2Cl)c(Cl)c1	N

Q: For this compound, state the assay outcome: `O=C1CN=C(c2ccccc2)c2cc(Cl)ccc2N1CC1CC1`
Ans: N

Q: For this compound, state the assay outcome: `C=CC(=O)OCC(COC(=O)C=C)(COC(=O)C=C)COC(=O)C=C`
Ans: Y

Q: For this compound, state the assay outcome: `O=[N+]([O-])c1ccc(Nc2ccccc2)cc1`
Ans: N

Q: For this compound, state the assay outcome: `ClCC(Cl)Cl`
Ans: N

###

- System Name: Muscarinic acetylcholine receptor M1 (Homo sapiens)
- Protocol Notes: Cholinergic receptor muscarinic 1 (CHRM1) small molecule antagonists, cell-based qHTS assay (AID 1963588); further: nearly all actives have a fitted effect of over 40% in size
- Condition Context: CHRM1-CHO antagonist mode, calcium flux fluorescence; series mostly up to 61.5 µM
Records with an inconclusive call do not appear. Active and inactive are the calls of the source. Calls follow the shape of the full dose curve.
One label from this list, please: active, inactive

Clc1cc(Cl)c(-c2cc(Cl)c(Cl)cc2Cl)cc1Cl	inactive
CCCC[N+](=O)[O-]	inactive
CC(Cc1ccc(O)cc1)NCC(O)c1cc(O)cc(O)c1 (stereo not drawn)	inactive
O=C(Nc1ccccc1)c1ccccc1I	inactive
CC(C)(c1ccccc1)c1ccc(O)cc1	inactive

Q: For this compound, state the assay outcome: CC(O)CCl (stereo not drawn)
Ans: inactive

Q: For this compound, state the assay outcome: `COP(=S)(OC)Oc1cc(Cl)c(I)cc1Cl`
Ans: inactive

Q: For this compound, state the assay outcome: `[O]=[Cd]`
Ans: inactive

Q: For this compound, state the assay outcome: `CCC(C)(C)C(=O)OC1=C(c2ccc(Cl)cc2Cl)C(=O)OC12CCCCC2`
Ans: inactive

Q: For this compound, state the assay outcome: CCCCn1cc[n+](C)c1 (tested in a mixture with another compound)
Ans: inactive

Q: For this compound, state the assay outcome: `ClC1=C(Cl)[C@]2(Cl)[C@H]3[C@H]([C@@H]4C=C[C@H]3C4)[C@@]1(Cl)C2(Cl)Cl`
Ans: inactive

Q: For this compound, state the assay outcome: `CC(C)[C@]12CC(=O)[C@H](C)[C@H]1C2`
Ans: inactive

Q: For this compound, state the assay outcome: `Oc1ccc(I)cc1`
Ans: inactive

Q: For this compound, state the assay outcome: `O=[N+]([O-])c1cccc2cccc([N+](=O)[O-])c12`
Ans: inactive

Q: For this compound, state the assay outcome: `C[N+]1(CCC(C(N)=O)(c2ccccc2)c2ccccc2)CCCCC1`
Ans: inactive

Q: For this compound, state the assay outcome: CCOP(=O)(SC(C)CC)N1CCSC1=O (stereo not drawn)
Ans: inactive

Q: For this compound, state the assay outcome: `ClCCCN1CCN(c2cccc(Cl)c2)CC1`
Ans: inactive

Q: For this compound, state the assay outcome: `CCOP(=S)(S)OCC`
Ans: inactive

Q: For this compound, state the assay outcome: `C[N+](C)(C)CCCl`
Ans: inactive

Q: For this compound, state the assay outcome: `CC(=O)[O-].CC(=O)[O-].O.O.[Zn+2]`
Ans: inactive

Q: For this compound, state the assay outcome: CC(Cc1ccc2c(c1)OCO2)NO (stereo not drawn)
Ans: inactive

Q: For this compound, state the assay outcome: `C[C@]12CC[C@@H]3c4ccc(OC(=O)N(CCCl)CCCl)cc4CC[C@H]3[C@@H]1CC[C@@H]2O`
Ans: inactive

Q: For this compound, state the assay outcome: `CCCCOC(=O)[C@@H](C)Oc1ccc(Oc2ccc(C#N)cc2F)cc1`
Ans: active

Q: For this compound, state the assay outcome: `CNN`
Ans: inactive

Q: For this compound, state the assay outcome: `O=C(O)c1ccccc1C(=O)Nc1cccc2ccccc12`
Ans: inactive

###

- System Name: 5-hydroxytryptamine receptor 2A (Homo sapiens) (UniProt P28223)
- Sequence (P28223 whole entry, looked up): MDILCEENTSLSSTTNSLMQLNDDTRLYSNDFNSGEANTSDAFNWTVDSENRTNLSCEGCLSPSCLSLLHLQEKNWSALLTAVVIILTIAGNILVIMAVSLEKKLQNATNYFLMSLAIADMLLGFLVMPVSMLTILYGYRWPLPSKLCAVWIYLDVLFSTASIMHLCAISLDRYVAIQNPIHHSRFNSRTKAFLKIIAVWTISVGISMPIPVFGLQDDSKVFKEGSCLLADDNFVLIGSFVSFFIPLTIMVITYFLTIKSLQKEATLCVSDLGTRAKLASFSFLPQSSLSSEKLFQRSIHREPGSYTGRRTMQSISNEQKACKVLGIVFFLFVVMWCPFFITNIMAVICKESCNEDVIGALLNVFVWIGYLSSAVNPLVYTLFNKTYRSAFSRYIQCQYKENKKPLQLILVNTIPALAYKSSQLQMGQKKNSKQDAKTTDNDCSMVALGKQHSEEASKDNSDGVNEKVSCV
- Protocol Notes: 5-hydroxytryptamine receptor 2A (HTR2A) small molecule agonists, cell-based qHTS assay (AID 1963587); further: nearly all actives have a fitted effect of over 30% in size
- Condition Context: HTR2A-CHO cells, calcium flux fluorescence, agonist mode; series mostly up to 76.8 µM
Results filed as inconclusive are left out. Calls of active or inactive are those of the source. Calls come from the whole dose curve.
One label from this list, please: true (1) for active, false (0) for inactive

Examples with answers:
CCN(CCO)CCn1c(Cc2ccccc2)nc2c1c(=O)n(C)c(=O)n2C	false (0)
CC[C@H](C)[C@H]1O[C@]2(C=C[C@@H]1C)C[C@@H]1C[C@@H](C/C=C(\C)[C@@H](O[C@H]3C[C@H](OC)[C@@H](O[C@H]4C[C@H](OC)[C@@H](NC)[C@H](C)O4)[C@H](C)O3)[C@@H](C)/C=C/C=C3\CO[C@@H]4[C@H](O)C(C)=C[C@@H](C(=O)O1)[C@]34O)O2	true (1)
[As]#[In]	false (0)
CCCCN(CCCC)C(=S)[S-].CCCCN(CCCC)C(=S)[S-].[Ni+2]	false (0)
O=C(CBr)OCc1ccccc1	false (0)

Q: For this molecule, state the assay outcome: `Nc1ccccc1-c1ccccc1`
Ans: false (0)

Q: For this molecule, state the assay outcome: `C=C(C)CN(CC)c1c([N+](=O)[O-])cc(C(F)(F)F)cc1[N+](=O)[O-]`
Ans: false (0)

###

- System Name: Beta-2 adrenergic receptor (Homo sapiens)
- Protocol Notes: Adrenergic beta2 receptor (ADRB2) small molecule antagonists, cell-based qHTS assay (AID 1963592); further: nearly all actives have a fitted effect of over 50% in size
- Condition Context: CHO-ADRB2 cells, isoproterenol-stimulated cAMP HTRF ratio, 0.5 h; series mostly up to 92.4 µM
Records with an inconclusive call do not appear. Calls of active or inactive are those of the source. The call rests on the fitted dose curve.
One label from this list, please: YES (active), NO (inactive)

Examples with answers:
Cc1nnc2n1-c1sc(CCC(=O)N3CCOCC3)cc1C(c1ccccc1Cl)=NC2	YES
CCC(C)(C)C(=O)OC1=C(c2ccc(Cl)cc2Cl)C(=O)OC12CCCCC2	NO
CO/N=C(\C(=O)OC)c1ccccc1CO/N=C(\C)c1cccc(C(F)(F)F)c1	NO
O=C(CBr)c1ccccc1	NO
Cc1c(F)c(F)c(COC(=O)C2C(/C=C(\Cl)C(F)(F)F)C2(C)C)c(F)c1F (configuration not stated)	NO

Q: For this compound, state the assay outcome: `N#CN`
Ans: NO

Q: For this compound, state the assay outcome: C=CCC1(C(C)CC)C(=O)NC(=O)NC1=O (configuration not stated)
Ans: NO

Q: For this compound, state the assay outcome: `CC(C)(c1cc(Cl)c(O)c(Cl)c1)c1cc(Cl)c(O)c(Cl)c1`
Ans: NO

###

- Protocol Notes: Nuclear factor erythroid 2-related factor 2/antioxidant responsive element (Nrf2/ARE) small molecule agonists: luciferase reporter gene qHTS assay in human keratinocytes (AID 1919969); further: nearly all actives have a fitted effect of over 35% in size
- Condition Context: KeratinoSens HaCaT ARE-luciferase, luminescence, 24 h; series mostly up to 92.4 µM
Records with an inconclusive call do not appear. Calls of active or inactive are those of the source. Calls come from the whole dose curve.
One label from this list, please: active, inactive

Oc1c(Cl)c(Cl)cc(Cl)c1Cl	inactive
NC(=O)CS(=O)C(c1ccccc1)c1ccccc1 (centres undefined)	inactive
CC[C@]1(O)CC[C@H]2[C@@H]3CCC4=CCCC[C@@H]4[C@H]3CC[C@@]21C	inactive
II	inactive
CCN[C@@H](C)Cc1ccccc1	inactive
Cc1c(F)c(F)c(COC(=O)C2C(/C=C(\Cl)C(F)(F)F)C2(C)C)c(F)c1F (centres undefined)	active
CC(C)(OO)c1ccccc1	inactive
NC(=O)c1ccc(N)nc1	inactive

Please find the next molecule below.
Q: For this molecule, state the assay outcome: `CC(=O)[C@H]1CC[C@H]2[C@@H]3CC[C@H]4C[C@H](O)CC[C@]4(C)[C@H]3C(=O)C[C@]12C`
Ans: inactive

###

- Protocol Notes: Nuclear factor erythroid 2-related factor 2/antioxidant responsive element (Nrf2/ARE) small molecule agonists: luciferase reporter gene qHTS assay in human keratinocytes (AID 1919969); further: nearly all actives have a fitted effect of over 35% in size
- Condition Context: KeratinoSens HaCaT ARE-luciferase, luminescence, 24 h; series mostly up to 92.4 µM
Inconclusive results are not listed. Calls of active or inactive are those of the source. Calls come from the whole dose curve.
One label from this list, please: 1.0 (active), 0.0 (inactive)

Examples with answers:
CCOP(=S)(OCC)Oc1ccc(Cl)cc1Cl	0.0
CC1(C)CCC(Cc2ccc(Cl)cc2)C1(O)Cn1cncn1 (stereo unspecified)	0.0

Q: For this compound, state the assay outcome: `COc1ccc(C=O)cc1O`
Ans: 0.0
